Values were extracted from paper PMC2756588.

Biological target: T1, Hof1, Q05080
T1 sequence (Q05080 590-669, looked up): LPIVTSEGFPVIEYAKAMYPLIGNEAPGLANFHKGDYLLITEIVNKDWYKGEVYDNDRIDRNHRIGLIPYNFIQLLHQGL
Test: SPOT array
Details: median of control spots 4086
The threshold is 10. Values of SPOT intensity beneath it are tagged fulfilled; values meeting or exceeding it are tagged not fulfilled.

BINDER: VGFRLALKFPSRITG
GROUP LABEL: not fulfilled
--
BINDER: RHLKLVPSTPMDIPW
GROUP LABEL: not fulfilled
--
BINDER: KKIRLIFTYPSTVGR
GROUP LABEL: fulfilled
--
BINDER: NMLKKKPLKKPLKRF
GROUP LABEL: not fulfilled
--
BINDER: VTHRLRISIPGITGR
GROUP LABEL: fulfilled
--
BINDER: DAPASKPSVPPRNYF
GROUP LABEL: fulfilled
--
BINDER: TTAPALPSLPPPPLL
GROUP LABEL: not fulfilled
--
BINDER: NLPKRKPPKLQGPFS
GROUP LABEL: not fulfilled
--
BINDER: QPQRTAPKPPISAPR
GROUP LABEL: fulfilled
--
BINDER: FTLPPPPPPPGLDEL
GROUP LABEL: not fulfilled
--
BINDER: NLKKRPPTAPQRKIS
GROUP LABEL: not fulfilled
--
BINDER: GKKVRPLLVLLLSRA
GROUP LABEL: fulfilled
--
BINDER: LPMNIQPDLPPRKIM
GROUP LABEL: fulfilled
--
BINDER: GAGERPRLVPRPINV
GROUP LABEL: not fulfilled
--
BINDER: QHQQRQPKRPKRYSL
GROUP LABEL: fulfilled
--
BINDER: HAPPLPPTAPPPPSL
GROUP LABEL: not fulfilled
--
BINDER: IHTRRPSSTSQYLIR
GROUP LABEL: not fulfilled
--
BINDER: RSLRKRPTSPSISGS
GROUP LABEL: not fulfilled
--
BINDER: NMLSRPRLAKLPSIR
GROUP LABEL: not fulfilled
--
BINDER: STPQTMRQAPKRPDA
GROUP LABEL: fulfilled
--
BINDER: FLIKFTPKFPQSIDH
GROUP LABEL: not fulfilled
--
BINDER: NRLRKRLNLPSEISI
GROUP LABEL: not fulfilled
--
BINDER: LEFRAILFIPKRAPF
GROUP LABEL: fulfilled
--
BINDER: RRTRLRPPTPLSQLL
GROUP LABEL: fulfilled
